target: UniProtKB O14842; test: Agonist activity at human FFA1 receptor expressed in CHO cells assessed as activity percentage at 10 uM by Fluo 4-AM dye based FLIPR assay relative to control; assay type: cell-based
Sequence (O14842 whole entry): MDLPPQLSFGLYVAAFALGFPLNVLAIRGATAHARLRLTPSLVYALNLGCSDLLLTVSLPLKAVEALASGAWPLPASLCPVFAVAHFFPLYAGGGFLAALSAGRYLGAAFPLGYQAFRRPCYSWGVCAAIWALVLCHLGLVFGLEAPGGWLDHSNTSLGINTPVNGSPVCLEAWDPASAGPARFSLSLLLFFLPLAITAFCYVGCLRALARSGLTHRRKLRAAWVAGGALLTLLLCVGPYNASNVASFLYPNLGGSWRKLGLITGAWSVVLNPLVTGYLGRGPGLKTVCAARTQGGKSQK
Record form. Attribute: Activity. Fill in for each entry.
Answers are plain numbers, in %.

Reference set, count: 4
Line notation	Activity (%)
Cc1sc(-c2ccccc2)nc1COc1ccc(OCC(=O)O)c(F)c1	37
O=C(O)COc1ccc(OCc2nc(-c3ccccc3)cs2)cc1F	15
O=C(O)COc1ccc(OCc2nnc(-c3ccccc3)o2)cc1F	6
Cc1cc(OCc2ncc(-c3ccccc3)o2)ccc1OCC(=O)O	2

Let's switch to this compound now.
Query string: Activity for `Cc1cc(OCc2nnc(-c3ccccc3)s2)ccc1OCC(=O)O` ?
Result string: 1

----------
Record form. Attribute: EC50. Fill in for each entry.
Target: Peroxisome proliferator-activated receptor delta (Homo sapiens)
Sequence (Q03181 whole entry): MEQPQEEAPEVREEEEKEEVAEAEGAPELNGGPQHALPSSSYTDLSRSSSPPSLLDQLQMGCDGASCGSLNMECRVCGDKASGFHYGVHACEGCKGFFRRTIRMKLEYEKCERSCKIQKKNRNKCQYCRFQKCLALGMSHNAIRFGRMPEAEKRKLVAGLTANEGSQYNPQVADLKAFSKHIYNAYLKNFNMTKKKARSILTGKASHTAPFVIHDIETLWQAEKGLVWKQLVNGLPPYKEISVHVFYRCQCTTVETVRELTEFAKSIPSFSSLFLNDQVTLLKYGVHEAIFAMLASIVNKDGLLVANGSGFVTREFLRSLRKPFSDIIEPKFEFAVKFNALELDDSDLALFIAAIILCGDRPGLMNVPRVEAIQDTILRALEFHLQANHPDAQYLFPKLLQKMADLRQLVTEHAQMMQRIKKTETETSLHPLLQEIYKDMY
Assay: Transactivation of GAL4-fused human PPARdelta LBD expressed in HEK293 cells after 18 hrs by luciferase reporter gene assay

Reference set, count: 5
Molecule	EC50
O=C(O)COc1ccc(OCc2nnc(-c3ccccc3)o2)cc1F	> 10 µM
Cc1cc(OCc2ncc(-c3ccccc3)o2)ccc1OCC(=O)O	> 10 µM
O=C(O)COc1ccc(OCc2nc(-c3ccccc3)cs2)cc1F	> 10 µM
Cc1nc(-c2ccccc2)sc1COc1ccc(S(=O)(=O)CC(=O)O)cc1	> 10 µM
O=C(O)COc1ccc(OCc2nnc(-c3ccccc3)s2)cc1F	> 10 µM

Please state, for each entry, its recorded EC50.
1. Cc1sc(-c2ccccc2)nc1CNc1ccc(OCC(=O)O)c(F)c1
2. Cc1sc(-c2ccccc2)nc1COc1ccc(OCC(=O)O)c(F)c1
3. O=C(O)COc1ccc(OCc2csc(-c3ccccc3)n2)cc1F
4. O=C(O)COc1ccc(OCc2ncc(-c3ccccc3)s2)cc1F
5. Cc1cc(OCc2csc(-c3ccccc3)n2)ccc1OCC(=O)O
6. Cc1cc(OCc2nnc(-c3ccccc3)s2)ccc1OCC(=O)O
7. Cc1nc(-c2ccc(F)cc2)sc1COc1ccc(S(=O)(=O)CC(=O)O)cc1
8. O=C(O)COc1ccc(OCc2ncc(-c3ccccc3)o2)cc1F

Result string:
1. > 10 µM
2. > 10 µM
3. > 10 µM
4. > 10 µM
5. > 10 µM
6. > 10 µM
7. > 10 µM
8. > 10 µM

Please state, for each entry, its recorded EC50.
1. Cc1nc(-c2ccc(Cl)cc2)sc1COc1ccc2c(c1)OCC2CC(=O)O (centres undefined)
2. Cc1nc(-c2ccccc2)oc1COc1ccc(OCC(=O)O)c(F)c1
3. Cc1cc(OCc2sc(-c3ccc(C(F)(F)F)cc3)nc2C)ccc1OCC(=O)O

Result string:
1: 0.264 µM; 2: 2.66 µM; 3: 0.315 µM

Please state, for each entry, its recorded EC50.
1. Cc1nc(-c2ccccc2)sc1COc1ccc(OCC(=O)O)c(F)c1
2. Cc1nc(-c2ccc(F)cc2)sc1COc1ccc(OCC(=O)O)c(F)c1
3. COc1ccc(-c2nc(C)c(COc3ccc4c(c3)OCC4CC(=O)O)s2)cc1 (centres undefined)

Result string:
["1.32 µM", "0.729 µM", "0.92 µM"]
